Target: Adenosine receptor A2a (Homo sapiens, UniProt P29274)
Sequence (P29274 whole entry): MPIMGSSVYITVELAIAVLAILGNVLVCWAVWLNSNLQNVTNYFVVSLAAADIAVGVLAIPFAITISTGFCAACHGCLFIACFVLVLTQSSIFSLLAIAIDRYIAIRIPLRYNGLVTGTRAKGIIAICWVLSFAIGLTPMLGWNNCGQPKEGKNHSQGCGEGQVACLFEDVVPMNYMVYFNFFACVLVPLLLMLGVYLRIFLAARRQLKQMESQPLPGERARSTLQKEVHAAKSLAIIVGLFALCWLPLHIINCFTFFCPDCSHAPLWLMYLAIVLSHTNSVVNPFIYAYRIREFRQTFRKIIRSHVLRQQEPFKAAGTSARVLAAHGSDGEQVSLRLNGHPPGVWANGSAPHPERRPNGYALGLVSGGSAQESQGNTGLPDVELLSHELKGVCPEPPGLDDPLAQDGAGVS
Assay: Antagonist activity at human adenosine A2A receptor expressed in HEK293 cells assessed as inhibition of NECA-induced cAMP accumulation pretreated for 30 mins followed by NECA induction by GloSensor assay
Metric Name: IC50 (nM)
# output: bare number, implied unit nM

Task: Need IC50, item `Cc1c(C#N)cccc1-c1cc(-c2ccn(Cc3cccc(C(C)(C)O)n3)c(=O)c2)nc(N)n1`
Output: 9

====

Assay: Half life in C57BL/6 mouse at 2 mg/kg, iv measured at 24 hrs by LC-MS/MS analysis
Format: ADME, organism-based
Details: in vivo
Metric Name: half-life (min)
# output: bare number, implied unit min

Task: Need half-life, item `Cc1c(C#N)cccc1-c1cc(-c2ccn(Cc3cccc(C(C)(C)O)c3)c(=O)c2)nc(N)n1`
Output: 55.8

====

Test: Half life in C57BL/6 mouse at 10 mg/kg, po measured at 24 hrs by LC-MS/MS analysis
Assay type: ADME, organism-based
Details: in vivo
Metric Name: half-life (h)
# output: bare number, implied unit h

Task: Need half-life, item `Cc1c(C#N)cccc1-c1cc(-c2ccn(Cc3cccc(C(C)(C)O)c3)c(=O)c2)nc(N)n1`
Output: 2.35

====

Assay: AUC (0 to t) in C57BL/6 mouse at 2 mg/kg, iv measured at 24 hrs by LC-MS/MS analysis
Assay type: ADME, organism-based
Design: dose 2 mg/kg, time 24 hrs, route iv
Details: in vivo
Metric Name: AUC(0-t) at 24 h (ng·h/mL)
# output: bare number, implied unit ng·h/mL

Task: Need AUC(0-t) at 24 h, item `Cc1c(C#N)cccc1-c1cc(-c2ccn(Cc3cccc(C(C)(C)O)c3)c(=O)c2)nc(N)n1`
Output: 5560

====

Assay: Plasma protein binding in CD-1 mouse by equilibrium dialysis assay
Assay type: ADME, cell-free
Details: read-out: PPB (converted)
Metric Name: fraction unbound
Reply briefly: the number, and no unit.

Task: Need fraction unbound, item `Cc1c(C#N)cccc1-c1cc(-c2ccn(Cc3cccc(C(C)(C)O)c3)c(=O)c2)nc(N)n1`
Output: 0.014

====

Assay: AUC (0 to t) in C57BL/6 mouse at 10 mg/kg, po measured at 24 hrs by LC-MS/MS analysis
Assay type: ADME, organism-based
Set-up: dose 10 mg/kg, time 24 hrs, route po
Conditions: in vivo
Metric Name: AUC(0-t) at 24 h (ng·h/mL)
# output: bare number, implied unit ng·h/mL

Task: Need AUC(0-t) at 24 h, item `Cc1c(C#N)cccc1-c1cc(-c2ccn(Cc3cccc(C(C)(C)O)c3)c(=O)c2)nc(N)n1`
Output: 24000

====

Assay: Metabolic stability in mouse liver microsome assessed as half life measured upto 60 mins in presence of NADPH by HPLC-MS/MS analysis
Assay type: ADME
Conditions: liver microsomes
Classify: Criterion met when half-life is strictly less than 40 min; Criterion not met when half-life is not.

Completed entries (count: 5):
Compound: Cc1ccc(-c2nc(N)nc3c2nnn3Cc2cccc(CO[C@H]3CCOC3)n2)o1 [CIFORADENANT]
Assigned Label: Criterion met

Compound: Cc1c(C#N)cccc1-c1cc(-c2ccn(Cc3cccc(C(C)(C)O)c3)c(=O)c2)nc(N)n1
Assigned Label: Criterion not met

Compound: Cc1c(C#N)cccc1-c1cc(-c2ccn(Cc3cccc(C(C)(C)F)n3)c(=O)c2)nc(N)n1
Assigned Label: Criterion met

Compound: Cc1c(C#N)cccc1-c1cc(-c2ccn(Cc3cccc(C(C)(C)F)c3)c(=O)c2)nc(N)n1
Assigned Label: Criterion met

Compound: Cc1c(C#N)cccc1-c1cc(-c2ccn(Cc3cccc(C(C)(C)O)n3)c(=O)c2)nc(N)n1
Assigned Label: Criterion not met

From here, focus on the item given below.
Task: is_below(half-life, 40 min) for `Nc1nc(-c2ccccc2)cc(-c2ccn(Cc3ccccc3)c(=O)c2)n1` ?
Output: Criterion met
